Where these numbers come from: ChEMBL document CHEMBL1144951

- Tested on: Staphylococcus aureus
- protocol_notes: Minimum inhibitory concentration (MIC) against Staphylococcus aureus
- Assay type: functional
# note: exactly 30 µg/mL is not below, so it is not fulfilled; use fulfilled for MIC strictly under it

In [3]: df
Out[3]:
     line_notation      class
0  CCCCCCCCn1ccnc1  fulfilled

Please let me know if "CCCCCCCn1ccnc1" shows MIC below 30 µg/mL.
not fulfilled

I wonder whether "CCCCCCCCCn1ccnc1" has MIC below 30 µg/mL. Can you tell?
fulfilled

Item "CCn1ccnc1" : MIC beneath 30 µg/mL, strictly?
not fulfilled

# TODO verify MIC < 30 µg/mL strictly for this molecule: "CCCCCCCCCCn1ccnc1"
not fulfilled
